Experiment: NCI Yeast Anticancer Drug Screen. Data for the mlh1 rad18 strain (AID 175)
Details: S. cerevisiae mlh1 rad18 strain growth inhibition; at 5.0 µM (retest, dose inferred, filed as 0.5); stronger effect = higher value
About 79,000 compounds went through this panel and 15% of them were active in at least one assay; those are over-represented in the sample as a whole. Active and inactive are the calls of the source. No stated cut-off is given here; in the data, active means growth inhibition above about 70%; inactive means the rest.
Entries and their growth inhibition
measurement_name: growth inhibition

• O=C1C=CC(=O)N1C12CC3CC(CC(C3)C1)C2 = 76% (active)
• CCCCn1cnc2c(SCc3ccccc3[N+](=O)[O-])nc(N)nc21 = 3% (inactive)
• CC(=O)OCC1OC(SSc2ccccc2)C(OC(C)=O)C(OC(C)=O)C1OC(C)=O (stereo unspecified) = -17% (inactive)
• COc1ccc2ccnc(Cc3ccc(OCc4ccccc4)c(OC)c3)c2c1 = 29% (inactive)
• COc1ccc(C2C3=C(CCCC3=O)Oc3cc4c(cc32)OCO4)c(OC)c1 (stereo unspecified) = 4% (inactive)
• O=C(C1=NNC(c2ccccc2)C1C(=O)c1ccccc1)c1ccccc1 (stereo unspecified) = 4% (inactive)
• Cc1ccc2c(c1)C(O)(c1ccccc1)C(c1ccccc1)C(c1ccccc1)O2 (stereo unspecified) = 66% (inactive)
• CC1(C)CNCC(C)(OCc2ccccc2)C(=O)NC(C)(C)CNCC(C)(OCc2ccccc2)C(=O)N1 (stereo unspecified) = -10% (inactive)
• CCOC(=O)N1CCN(C=S)CC1 = -5% (inactive)
• Cc1ccc2c(c1)C1(SCC(=O)N1c1ccc(Cl)cc1)C(=O)N2 (stereo unspecified) = -5% (inactive)
• COc1ccc(-c2c(C#N)cc(OC)c(OC)c2OC)c(C=O)c1 = 11% (inactive)
• O=C1C(Br)=C(Br)C(=O)c2ccccc21 = 99% (active)
• O=C(c1ccccc1)C(c1ccccc1)C1(O)C(=O)Nc2c(Cl)cc(Cl)cc21 (stereo unspecified) = 0% (inactive)
• CCOC(=O)/C=C1/C(=O)OC2C1OC1OC(C)(C)OC12 (stereo unspecified) = 7% (inactive)
• CCOC(=O)Nc1cc2c(c(N)n1)N=C(c1ccccc1)CN2 = 10% (inactive)
• Cc1cc(NC(=S)SCc2ccc3c(c2)OCO3)ccc1Br = 34% (inactive)
• COc1nc2c(ccn2C2OC(COC(C)=O)C(OC(C)=O)C(OC(C)=O)C2OC(C)=O)c(=O)n1C (stereo unspecified) = 1% (inactive)
• COc1cc(C(c2cc3c(cc2O)OCO3)N2CCN(C(c3cc(OC)c(O)c(OC)c3)c3cc4c(cc3O)OCO4)CC2)cc(OC)c1O (stereo unspecified) = 0% (inactive)
• CC(=O)OCC1OC(n2cnc3c(Cl)nc(Cl)nc32)C(OC(C)=O)C1OC(C)=O (stereo unspecified) = -1% (inactive)
• CC(=O)Nc1ccc(-c2nnc(SCC(=O)Nc3cccc(Cl)c3)o2)cc1 = 2% (inactive)
• NNC(=O)N/N=C(\CC1(O)C(=O)Nc2c(Cl)ccc(Cl)c21)c1ccc(F)cc1 (stereo unspecified) = 57% (inactive)

###

Assay: NCI Yeast Anticancer Drug Screen. Data for the sgs1 mgt1 strain (AID 161);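 further: 0% = growth of cultures given vehicle only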
Conditions: S. cerevisiae sgs1 mgt1 strain, at 50.0 µM (retest, dose inferred, filed as 5.0)
The panel holds about 79,000 compounds, 15% with a hit somewhere; the sample as a whole holds those more often. Active and inactive are the calls of the source. No stated cut-off is given here; in the data, active means growth inhibition above about 70%; inactive means the rest.
Outcomes: active, inactive

• O.O.O=Cc1cc(Br)cc(Br)c1O.O=Cc1cc(Br)cc(Br)c1O.[Co] = active
• CC(=O)OC(c1ccc(Cl)cc1)c1ccc(Cl)cc1 = inactive
• O=C(Cc1nc2ccccc2s1)Nc1ccc2ccccc2c1 = active
• CCCCOC(=O)c1n[nH]c(C)c1N=NN(C)C = active
• Cc1c[nH]c2nc(C)n(-c3ccccc3)c(=N)c12 = inactive
• Cc1ccc(NC(=O)CCCC(=O)C(C#N)c2ccccc2C)cc1C (configuration not stated) = inactive
• O=C1C(c2c[nH]c3ccccc23)=Nc2ccc(Br)cc21 = inactive
• CCOC(=O)Sc1nc2ccccc2[nH]1 = inactive
• CCOc1c(N=Nc2ccc(Cl)cc2)c(-c2ccccc2)nn1C(=S)S = active
• Oc1ccc(C2Oc3ccccc3C=C2c2ccccc2)cc1 (configuration not stated) = active
• Nc1c(Cl)nc(C(F)(F)F)nc1NCc1ccccc1 = active
• COc1ccc(C(=O)C2=C(C)Nc3ccc(Br)cc3S2)cc1 = inactive
• Nc1ncnc2nc(SCCO)[nH]c12 = inactive
• CCOC(=O)C(=N\Nc1c(C)cccc1C)/C(C)=N\NC(N)=S = inactive
• NNc1cc(C(F)(F)F)nc2ccccc12 = inactive
• N#CC12CCCC(=O)N1c1ccccc1S2 (configuration not stated) = inactive
• CC(C)Cc1cc2c(cc1O)CCC1C2CC[C@@]2(C)C1CC[C@@H]2O (some centres not stated) = active
• O=C(/C=C/c1ccc(O)cc1)c1cc(Cl)ccc1O = active
• CCc1ccc(C(=O)O)c2ccccc12 = active
• Clc1c2ccccc2cc2cccnc12 = active
• O=C1OC(=O)c2ccc([N+](=O)[O-])c3cccc1c23 = inactive
• O=C(Nc1ccc(Cl)cc1Cl)C1C(=O)OC2(CCCCC2)OC1=O = active
• Cc1ccc(NC(=S)SCc2ccc(Cl)cc2)cc1Cl = active
• C=CC(=C)OC = inactive
• CO/N=C/c1ccc([N+](=O)[O-])s1 = active
• Cc1ccc(OC/C=C/c2cccc(C#N)c2)cc1 = inactive
• CCCCCNC(=O)c1ccc(Cl)c(Cl)c1 = inactive

Reference source for all entries: PubChem BioAssay (NCI)
